# system-name: RARβ2 (Homo sapiens)
# Construct: expressed in transfected cells
# assay-explanation: Receptor Selection and Amplification Technology (R-SAT) functional receptor assay
# Format: cell-based
# experimental-context: Table 1, read-out: pEC50 (converted)
attribute-measured: EC50 (µM)

See these solved cases before continuing.
Input: Can you share its EC50? I mean this compound: CCCCCCNC(=O)COc1nc(-c2ccc(C(=O)O)cc2)sc1C [Compound 13]
Output: 0.0417

Input: Can you share its EC50? I mean this compound: CCCCCCCCCc1ccc(-c2ccc(C(=O)O)cc2)cc1 [Compound 2, 4′-Nonyl-biphenyl-4-carboxylic acid]
Output: 0.00794

Input: Can you share its EC50? I mean this compound: CCCCCCCc1ccc(-c2ccc(C(=O)NN)cc2)cc1 [Compound 45]
Output: 0.257

Input: Can you share its EC50? I mean this compound: CCCCCCCCc1ccc(-c2ccc(C(=O)O)cc2C)cc1 [Compound 1]
Output: 0.00229

Input: Can you share its EC50? I mean this compound: Cc1sc(-c2ccc(C(=O)O)cc2)nc1OCC(=O)NC1CCCC1 [Compound 61]
Output: 0.832

Input: Can you share its EC50? I mean this compound: CCCCCCOc1cc(C)c(-c2ccc(C(=O)O)cc2)cc1C [Compound 11]
Output: 0.0275

(1) CCCCCCCc1ccc(-c2ccc(C(=O)NCCc3ccccn3)cc2)cc1 [Compound 59]
(2) CCCCCCCCOc1ccc(-c2ccc(C(=O)NCCC#N)cc2)cc1 [Compound 51]
Input: Could you kindly indicate whether 1 or 2 has the higher EC50 value? // caller expects the label of the chosen entry
Output: 1

(1) CCCCCCCCc1ccc(-c2ccc(C(=O)NS(C)(=O)=O)cc2)cc1 [Compound 60]
(2) CCCCOCCOc1nc(-c2ccc(C(=O)O)cc2)sc1C [Compound 27]
(3) CCCCOCCOc1cc(C)c(-c2ccc(C(=O)O)cc2)cc1C [Compound 44]
(4) CCCCCCCc1ccc(-c2ccc(C(=O)NO)cc2)cc1 [Compound 37]
Input: Highest EC50 first, then in falling order down to the smallest. # format: label list in the order the request specifies
Output: 1, 3, 4, 2

----------
# system-name: RARβ2 (Homo sapiens, UniProt P10826)
# Construct: expressed in transfected cells
# assay-explanation: Receptor Selection and Amplification Technology (R-SAT) functional receptor assay
# Format: cell-based
# experimental-context: Table 1
# Source text: The functional receptor assay, Receptor Selection and Amplification Technology (R-SAT), was used to investigate the pharmacological properties of known and novel RARβ agonists and antagonists. Efficacy is relative to the maximal response of the reference ligand, Am-580.
attribute-measured: pEC50

Input: Missing value: pEC50, RARβ2 (Homo sapiens, UniProt P10826), entry `CCCCCCCc1ccc(-c2ccc(C(=O)O)cc2)cc1` . Fill in?
Output: 7.59

Input: Missing value: pEC50, RARβ2 (Homo sapiens, UniProt P10826), entry `CC(C)CCCCOc1ccc(-c2ccc(C(=O)O)cc2)cc1` . Fill in?
Output: 7.20

Input: Missing value: pEC50, RARβ2 (Homo sapiens, UniProt P10826), entry `CCCCCCCOc1ccc(-c2ccc(C(=O)O)cc2)cc1` . Fill in?
Output: 7.21

----------
# system-name: RARβ2 (Homo sapiens)
# Construct: expressed in transfected cells
# assay-explanation: Receptor Selection and Amplification Technology (R-SAT) functional receptor assay
# Type: cell-based
# experimental-context: Table 1, efficacy relative to the maximal response of the reference ligand Am-580, read-out: % Eff.
attribute-measured: Emax (%)

Input: Can you share its Emax? I mean this compound: CCCCCCCCN1CCN(c2ccc(C(=O)O)cc2)CC1 [Compound 50, 4-(4-Octyl-piperazin-1-yl)-benzoic acid]
Output: 85

Input: Can you share its Emax? I mean this compound: Cc1sc(-c2ccc(C(=O)O)cc2)nc1OCC(=O)NC1CCCCCC1 [Compound 56]
Output: 105

(P) CCCCOCCOc1cc(C)c(-c2ccc(C(=O)O)cc2)cc1C [Compound 44]
(Q) CCCCOCCOc1nc(-c2ccc(C(=O)O)cc2)sc1C [Compound 27]
Input: Could you kindly indicate whether P or Q has the higher Emax value? // caller expects the label of the chosen entry
Output: Q

(I) CCCCCCc1ccc(-c2ccc(C(=O)O)cc2)cc1 [Compound 16]
(II) Cc1sc(-c2ccc(C(=O)O)cc2)nc1OCC(=O)NC(C)CCC(C)C (stereo not drawn) [Compound 57]
Input: Of I and II , which shows the smaller Emax value? // caller expects the label of the chosen entry
Output: I

----------
# system-name: RARβ2 (Homo sapiens)
# Construct: expressed in transfected cells
# assay-explanation: Receptor Selection and Amplification Technology (R-SAT) functional receptor assay
# Format: cell-based
# experimental-context: Table 2
attribute-measured: pEC50

Input: Can you share its pEC50? I mean this compound: CCCCCCCCc1ccc(-c2ccc(C(=O)OCCc3ccccn3)cc2)cc1 [Compound 40]
Output: 6.75

Input: Can you share its pEC50? I mean this compound: CCCCCCCc1ccc(-c2ccc(C(=O)OCc3ccco3)cc2)cc1 [Compound 21]
Output: 7.26

Input: Can you share its pEC50? I mean this compound: CCCCCCCCc1ccc(-c2ccc(C(=O)OCCc3ccccn3)cc2)cc1 [Compound 28]
Output: 7.09

Input: Can you share its pEC50? I mean this compound: CCCCCCCCc1ccc(-c2ccc(C(=O)OCCc3ccccn3)cc2)cc1 [Compound 14]
Output: 7.38

----------
# system-name: RARβ2 (Homo sapiens, UniProt P10826)
# Construct: expressed in transfected cells
# assay-explanation: Receptor Selection and Amplification Technology (R-SAT) functional receptor assay
# Assay type: cell-based
# experimental-context: Table 1, efficacy relative to the maximal response of the reference ligand Am-580, read-out: % Eff.
attribute-measured: Emax (%)

See these solved cases before continuing.
Input: Missing value: Emax, RARβ2 (Homo sapiens, UniProt P10826), entry `CCCCCCCCc1ccc(-c2ccc(C(=O)C(=O)O)cc2)cc1` . Fill in?
Output: 80

Input: Missing value: Emax, RARβ2 (Homo sapiens, UniProt P10826), entry `CCCCCCCc1ccc(-c2ccc(C(=O)NO)cc2)cc1` . Fill in?
Output: 49

Input: Missing value: Emax, RARβ2 (Homo sapiens, UniProt P10826), entry `CCCCCCNC(=O)COc1nc(-c2ccc(C(=O)O)cc2)sc1C` . Fill in?
Output: 85

Input: Missing value: Emax, RARβ2 (Homo sapiens, UniProt P10826), entry `CCCOCCOc1nc(-c2ccc(C(=O)O)cc2)sc1C` . Fill in?
Output: 98

(P) CCCCCCCc1ccc(-c2ccc(C(=O)NN)cc2)cc1
(Q) CCCCCCCc1ccc(-c2ccc(C(=O)O)c(F)c2)cc1
(R) CCCCCCCCCc1ccc(-c2ccc(C(=O)O)cc2)cc1
Input: Highest Emax first, then in falling order down to the smallest. # format: label list in the order the request specifies
Output: R, P, Q

(I) CCCCCCCCOc1ccc(-c2ccc(C(=O)NCCC#N)cc2)cc1
(II) CCCCCCCCCCOc1ccc(-c2ccc(C(=O)O)cc2)cc1
Input: Could you kindly indicate whether I or II has the higher Emax value? // caller expects the label of the chosen entry
Output: II

(1) CCCCCCCCc1ccc(-c2ccc(C(=O)O)c(C)c2)cc1
(2) CCCCC(CC)COc1nc(-c2ccc(C(=O)O)cc2)sc1C (stereo not shown)
Input: Of 1 and 2 , which shows the smaller Emax value? // caller expects the label of the chosen entry
Output: 2
(2: 54%, 1: 84%)

----------
# system-name: RARβ2 (Homo sapiens)
# Construct: expressed in transfected cells
# Sequence (P10826 1-448 isoform P10826-2): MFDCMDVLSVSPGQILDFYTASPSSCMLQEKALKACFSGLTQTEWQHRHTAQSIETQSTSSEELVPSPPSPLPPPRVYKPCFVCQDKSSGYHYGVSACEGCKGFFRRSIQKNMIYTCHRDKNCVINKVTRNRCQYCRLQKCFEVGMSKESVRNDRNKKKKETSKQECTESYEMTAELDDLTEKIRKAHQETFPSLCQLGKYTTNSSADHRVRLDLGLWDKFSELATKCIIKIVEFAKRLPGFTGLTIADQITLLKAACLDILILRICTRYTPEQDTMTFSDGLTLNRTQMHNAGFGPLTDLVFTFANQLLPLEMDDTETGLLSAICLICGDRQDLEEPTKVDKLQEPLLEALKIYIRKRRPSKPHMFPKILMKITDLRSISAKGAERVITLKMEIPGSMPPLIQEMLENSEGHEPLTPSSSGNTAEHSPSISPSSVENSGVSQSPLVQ
# assay-explanation: Receptor Selection and Amplification Technology (R-SAT) functional receptor assay
# Format: cell-based
# experimental-context: Table 2, efficacy relative to the maximal response of the reference ligand Am-580, read-out: % Eff.
attribute-measured: Emax (%)

Input: Can you share its Emax? I mean this molecule: `CCCCCCCCc1ccc(-c2ccc(C(=O)OCCc3ccccn3)c(F)c2)cc1`
Output: 124

Input: Can you share its Emax? I mean this molecule: `CCCCCCCCOc1ccc(-c2ccc(C(=O)OCCC#N)cc2)cc1`
Output: 46

Input: Can you share its Emax? I mean this molecule: `CCCCCCCCc1ccc(-c2ccc(C(=O)OCCC#N)cc2)cc1`
Output: 71

(P) CCCCCCCOc1ccc(-c2ccc(C(=O)OCCC#N)cc2)cc1
(Q) CCCCCCOc1ccc(-c2ccc(C(=O)OCc3ccco3)cc2)cc1
Input: Could you kindly indicate whether P or Q has the higher Emax value? // caller expects the label of the chosen entry
Output: P
